Where do these numbers come from? They come from the supplement of paper PMC11208160.

- protocolDetails: recombinant UMI read abundance after kanamycin selection (control-corrected) (log10(CPM+1)); higher = more efficient recombination; extreme values may be limits of the assay; sequences stand for … in AGTGCAGAGAAAATCGGCCAGTTTTCTCTGCCTGCAGTCCGCATGCCGTGGGACCCCTTGGGTTCTAACCTGTTGCCTAGATTTATGCAGCGGACTGCCTTTCTCCCAAAGTGATAAACCGG…AGGTTGGTTTCACT; site = the 11-nt donor;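 note: IS621 bridge recombinase in Escherichia coli cells against a fixed T5 target plasmid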
Reported recombinant UMI read abundance (log10) by item:
Quick one: just the number, no unit, thanks!

Study these solved cases before continuing.
> print(dat)
                            monomersequence  obsvalue
1  CAGTTGGCATGGACCGGTTTTCCCGGTAATCCGTATTTGTG (site CAGTTGGCTCA)      1.47
2  CCCCACACATGGACCGGTTTTCCCGGTAATCCGTATTTGTG (site CCCCACACTGA)         0

Consider the sequence TAATGTGCATGGACCGGTTTTCCCGGTAATCCGTATTTGGG (site TAATGCGCTCC) and give its measured recombinant UMI read abundance (log10).
0.00475

So what does the record say about recombinant UMI read abundance (log10) for CGAGGACCATGGACCGGTTTTCCCGGTAATCCGTATTTGGG (site CGCGGACCTCC) ?
0

Could you share which recombinant UMI read abundance (log10) value was measured for TGTATACCATGGACCGGTTTTCCCGGTAATCCGTATTTGAC (site TGTAGACCTGT) ?
0

Item GATCTCACATGGACCGGTTTTCCCGGTAATCCGTATTTGAT (site GAGCTCACTAT) has what recorded recombinant UMI read abundance (log10)?
0.00697

Look up recombinant UMI read abundance (log10): AGCGTTTCATGGACCGGTTTTCCCGGTAATCCGTATTTGAC (site AGCGTTTCTGT)
2.63

For the sequence CGAAAACCATGGACCGGTTTTCCCGGTAATCCGTATTTGTT (site CGAAAACCTAA) , what recombinant UMI read abundance (log10) is on record?
0

Need recombinant UMI read abundance (log10) of CTCGTCGCATGGACCGGTTTTCCCGGTAATCCGTATTTGGG (site CTCGTCGCTCC) , thanks.
0.0128
